# EXPERIMENTAL_PROTOCOL: qHTS assay for identifying genotoxic compounds that show differential cytotoxicity against isogenic chicken DT40 cell lines with known DNA damage response pathways - Rev3 mutant cell line (AID 743014); further: nearly all actives have a fitted effect of over 55% in size
# SETUP_CONDITIONS: chicken DT40 Rev3-/- viability, CellTiter-Glo, 40 h; series mostly up to 68.4 µM
# Excerpt: National Center for Advancing Translational Sciences [NCATS] NIH Chemical Genomics Center [NCGC] U.S. Environmental Protection Agency [EPA] National Institutes of Environmental Health Sciences [NIEHS] National Toxicology Program [NTP] U.S. Food and Drug Administration [FDA] DNA repair pathways play a critical role in cellular homeostasis by repairing DNA damage induced by endogenous processes and xenobiotics. […]
Inconclusive results are not listed. Active and inactive are the calls of the source. The call rests on the fitted dose curve; in most records, active means well fitted cell-killing curve with a large enough effect in the repeat runs; inconclusive means weak or mixed curves, or effect the other way; inactive means no such curve, though single readings can be large or run the other way.
Hi! Could you answer with just one of these? active, inactive

[
  {
    "COMPOUND": "COc1cccc([C@@]2(O)CCCC[C@@H]2CN(C)C)c1",
    "CLASSIFICATION": "inactive"
  }
]

What call does the record list for OCC(Cl)CCl (stereo not drawn) ?
inactive

Short answer needed: outcome of this test for N[C@@H]1C[C@H]1c1ccccc1 ?
inactive

Field: outcome | Entry: C[C@H](CN1CCOCC1)C(C(=O)N1CCCC1)(c1ccccc1)c1ccccc1
active

Write down the call the test reported for this compound. Item: CCOP(=S)(OCC)SCCl
inactive

How did this test come out for CCC(C(N)=O)N1CCCC1=O (stereo not drawn) ?
inactive

Recorded test call requested for CCOC1Oc2ccc(OS(C)(=O)=O)cc2C1(C)C (stereo not drawn)
active

For Cc1ccc(Cl)c(O)c1 , which call appears in the assay record?
inactive
